target: HIPK4 (human); experiment: Caliper, Mobility shift assay off-chip; settings: compound 0.02 µM
Measure name: inhibition (%)

Worked examples follow.
Chem smiles: CNC(=O)c1ccccc1Sc1ccc2c(/C=C/c3ccccn3)n[nH]c2c1
Measure name: inhibition
Unit string: %
Endpoint result: 1.9
//
Chem smiles: Cc1ccc(Nc2nccc(N(C)c3ccc4c(C)n(C)nc4c3)n2)cc1S(N)(=O)=O
Measure name: inhibition
Unit string: %
Endpoint result: 6.8

A: CNC(=O)c1cc(Oc2ccc(NC(=O)Nc3ccc(Cl)c(C(F)(F)F)c3)cc2)ccn1
B: COc1cc2c(Oc3ccc4[nH]c(C)cc4c3F)ncnc2cc1OCCCN1CCCC1
Q. inhibition comparison. Which is larger, A or B ? Indicate your choice by writing its label.
A. A
(A: 84%, B: -0.9%)
